assayed.system: T1, FOLR1-Fc (UniProt P15328 25-234, limits assumed)
T1 construct: also called FOLR1 (ELISA coating); not shown: Fc part
T1 sequence (P15328 25-234 limits assumed): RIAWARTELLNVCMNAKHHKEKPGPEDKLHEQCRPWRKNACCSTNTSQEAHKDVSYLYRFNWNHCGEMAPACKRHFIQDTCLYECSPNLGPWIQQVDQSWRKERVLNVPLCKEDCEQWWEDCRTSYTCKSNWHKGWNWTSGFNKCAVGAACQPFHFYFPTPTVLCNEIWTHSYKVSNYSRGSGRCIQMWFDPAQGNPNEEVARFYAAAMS
method: ELISA, FOLR1-Fc coated
endpoint.name: Relative Potency

binder: Modified antibody vAb3 (antibody, V domains shown, Carries modified CDR-L1) VH: EVQLVESGGGVVQPGRSLRLSCSASGFTFSGYGLSWVRQAPGKGLEWVAMISSGGSYTYYADSVKGRFAISRDNAKNTLFLQMDSLRPEDTGVYFCARHGDDPAWFAYWGQGTPVTVSS VL: DIQLTQSPSSLSASVGDRVTITCSASSGLSSSYLHWYQQKPGKAPKPWIYGTSNLASGVPSRFSGSGSGTDYTFTISSLQPEDIATYYCQQWSSYPYMYTFGQGTKVEIK
Relative Potency: 3.99 fold against parent antibody

query: Given Modified antibody vAb5 (antibody, V domains shown, Carries modified CDR-H3) VH: EVQLVESGGGVVQPGRSLRLSCSASGFTFSGYGLSWVRQAPGKGLEWVAMISSGGSYTYYADSVKGRFAISRDNAKNTLFLQMDSLRPEDTGVYFCARHGDDVAWFAYWGQGTPVTVSS VL: DIQLTQSPSSLSASVGDRVTITCSVSSSISSNNLHWYQQKPGKAPKPWIYGTSNLASGVPSRFSGSGSGTDYTFTISSLQPEDIATYYCQQWSSYPYMYTFGQGTKVEIK , state its recorded Relative Potency.
result: 1.42 fold against parent antibody

query: Look up Relative Potency: Modified antibody vAb4 (antibody, V domains shown, Carries modified CDR-L2) VH: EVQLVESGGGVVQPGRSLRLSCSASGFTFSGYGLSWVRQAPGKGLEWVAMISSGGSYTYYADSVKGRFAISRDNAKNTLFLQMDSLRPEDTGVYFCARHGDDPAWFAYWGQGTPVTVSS VL: DIQLTQSPSSLSASVGDRVTITCSVSSSISSNNLHWYQQKPGKAPKPWIYGTSSRASGVPSRFSGSGSGTDYTFTISSLQPEDIATYYCQQWSSYPYMYTFGQGTKVEIK
result: 1.94 fold against parent antibody

query: For the binder Modified antibody vAb1 (antibody, V domains shown, Carries modified CDR-H3, CDR-L1 and CDR-L2) VH: EVQLVESGGGVVQPGRSLRLSCSASGFTFSGYGLSWVRQAPGKGLEWVAMISSGGSYTYYADSVKGRFAISRDNAKNTLFLQMDSLRPEDTGVYFCARHGDDVAWFAYWGQGTPVTVSS VL: DIQLTQSPSSLSASVGDRVTITCSASSGLSSSYLHWYQQKPGKAPKPWIYGTSSRASGVPSRFSGSGSGTDYTFTISSLQPEDIATYYCQQWSSYPYMYTFGQGTKVEIK , what Relative Potency is on record?
result: 4.48 fold against parent antibody
